Tested on: CCRF-CEM leukemia
Test Protocol: NCI tumour cell line growth inhibition, 48 h
Endpoint Label: TGI

Worked examples, 5 molecules total:
Molecule: COc1cc2c(cc1OCCCOc1cc3c(cc1OC)C(=O)N1CCC[C@H]1CN3)N=C[C@@H]1CCCN1C2=O
TGI: > 100 µM
--
Molecule: COC(=O)c1sc2ncc3c(c2c1N)CC(C)CC3 (stereo not given)
TGI: > 100 µM
--
Molecule: CC1=NC(C)(C)N(O)C1(C)C
TGI: > 100 µM
--
Molecule: CC(C)(C)c1nc2c(o1)C(=Nc1ccc(F)cc1)c1ccccc1C2=O
TGI: > 100 µM
--
Molecule: Cc1ccsc1C(=S)Nc1ccc(Cl)c(C(=O)OC(C(C)C)C(C)C)c1
TGI: > 100 µM

Looking for the measured TGI of Cn1c(N)nc2c(nc(OCc3ccccc3)n2C2OC(CO)C(O)C2O)c1=O (stereo not given) , can you help?
> 100 µM

Looking for the measured TGI of Cc1cc(C)nc(NS(=O)(=O)c2ccc(Nc3c4ccccc4nc4c(C(=O)N5CCN(CCOS(C)(=O)=O)CC5)ccc(Cl)c34)cc2)n1 , can you help?
> 100 µM

====

Tested on: IGROV1 ovarian
Test Protocol: NCI tumour cell line growth inhibition, 48 h
Endpoint Label: TGI

Compound: COC(=O)/C(=N\NC(=S)NN)C(C(=O)C(=O)Nc1ccccc1C(N)=O)c1nc2ccccc2[nH]c1=O (stereo unspecified)
TGI: > 100 µM
--
Compound: COc1cc(/C=C/C(=O)O)ccc1OS(=O)(=O)O
TGI: > 100 µM
--
Compound: CC(C)Cc1c(C#N)c(C#N)c(N)n1Cc1ccccc1
TGI: > 100 µM

Looking for the measured TGI of C=C(COC(C)=O)CC(/C=C(\C)CCC=C(C)C)OC(C)=O (stereo unspecified) , can you help?
> 100 µM

Looking for the measured TGI of O=c1cc(-c2ccccc2F)[nH]c2cc3c(cc12)OCO3 , can you help?
> 100 µM

Looking for the measured TGI of COc1ccc2c(-c3cc4ccccc4o3)cc(=O)oc2c1 , can you help?
> 100 µM

====

Test system: MOLT-4 leukemia
Test Protocol: NCI tumour cell line growth inhibition, 48 h
Endpoint Label: GI50

Worked examples, 2 molecules total:
Molecule: Cc1ccc(C(=O)CC(Sc2cccc(Cl)c2Cl)c2ccc(Cl)cc2)cc1C (stereo not drawn)
GI50: 33 µM
--
Molecule: CNC(=O)c1ccc(-c2cnc3ncc(Cc4ccc5ncccc5c4)n3n2)cc1F
GI50: > 100 µM

Now consider a different molecule.
Looking for the measured GI50 of COc1ccc(C2C(C#N)=C(N)OC3=C2CCCc2ccc(F)cc23)cc1OC (stereo not drawn) , can you help?
> 38.2 µM

====

Reported TGI is given for each of the following compounds.
Tested on: EKVX NSCLC
Test Protocol: NCI tumour cell line growth inhibition, 48 h

Worked examples, 5 compounds total:
Compound: O=C1c2ccccc2-c2cccc3ccc(Cc4ccccc4)c1c23
TGI: > 100 µM

Compound: C/C(=N\Nc1nc2ccccc2s1)c1cccnn1
TGI: 33.5 µM

Compound: COc1cc2c(cc1O)CC[n+]1cc3c(OC)c(OC)ccc3cc1-2
TGI: > 100 µM

Compound: COC(=O)C1=C(C)N2[C@H](C(=O)O)CS[C@@]2(C)[C@H](C(=O)OC)[C@H]1c1cccc([N+](=O)[O-])c1
TGI: > 100 µM

Compound: NC(=S)N=Nc1c(O)cc(Nc2ccc(Cl)cc2Cl)c2ccccc12
TGI: 94.4 µM

Now consider a different compound.
Looking for the measured TGI of C=C(C)[C@@H]1CC[C@@]2(C(=O)O)CC[C@]3(C)C(CCC4[C@@]5(C)CCC(OS(=O)(=O)c6ccccc6)C(C)(C)C5CC[C@]43C)C12 (stereo not given in full) , can you help?
19.3 µM
